Data provenance is ChEMBL document CHEMBL3593239.

Experiment: Half life of the compound in phosphate buffer at 1 uM at pH 7.4 at 37 degC by HPLC trapping method
Type: ADME
parameter: half-life at 1 µM (min)
Give just the numeric value; min need not be written.

Task item: What half-life at 1 µM value was documented for this molecule, CNc1ccc(C(=O)Oc2cc(O/N=[N+](\[O-])N(C)C)c([N+](=O)[O-])cc2[N+](=O)[O-])cc1 ?
Reply: 20

###

Experiment: Half life of the compound in phosphate buffer at 1 uM at pH 7.4 at 25 degC by HPLC trapping method
Assay type: ADME
parameter: half-life at 1 µM (h)
Your answer should be a plain number; it is taken to be in h.

Task item: Look at this compound and give its reported half-life at 1 µM. CNc1ccc(C(=O)Oc2cc(O/N=[N+](\[O-])N(C)C)c([N+](=O)[O-])cc2[N+](=O)[O-])cc1
Reply: 2
